molecular target: UniProt P12931; assay: Inhibition of a panel of kinases, in vitro HotSpot kinase assay: SRC; assay type: biochemical; details: Table 13, A compounds; 1 μM ATP
Sequence (P12931 whole entry): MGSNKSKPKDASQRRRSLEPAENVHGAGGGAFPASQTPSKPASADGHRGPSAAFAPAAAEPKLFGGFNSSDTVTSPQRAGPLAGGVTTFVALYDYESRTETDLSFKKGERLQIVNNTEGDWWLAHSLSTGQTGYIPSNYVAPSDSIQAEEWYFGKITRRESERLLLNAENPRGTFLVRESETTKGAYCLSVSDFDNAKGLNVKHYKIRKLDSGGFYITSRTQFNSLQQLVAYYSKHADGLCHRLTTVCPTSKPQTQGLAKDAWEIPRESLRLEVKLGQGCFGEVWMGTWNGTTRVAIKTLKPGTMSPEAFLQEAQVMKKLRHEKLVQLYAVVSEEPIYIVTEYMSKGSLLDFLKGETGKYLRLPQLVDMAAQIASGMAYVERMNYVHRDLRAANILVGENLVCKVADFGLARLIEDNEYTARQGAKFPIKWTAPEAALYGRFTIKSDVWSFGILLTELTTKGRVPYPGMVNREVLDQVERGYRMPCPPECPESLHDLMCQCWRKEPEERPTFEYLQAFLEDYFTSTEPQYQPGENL
property.name: IC50

C[C@@H]1[C@H](NC(=O)c2ccc(C3CC3)cc2F)CCCN1c1cnc(C(N)=O)c(Nc2cnn(C)c2)c1    100 to 1000 nM
C[C@@H]1[C@H](NC(=O)c2cc3c(n2C)CC(C)(C)C3)CCCN1c1cnc(C(N)=O)c(Nc2cnn(C)c2)n1    100 to 1000 nM
C[C@@H]1[C@H](NC(=O)c2ccc(C3CC3)cc2F)CCCN1c1cnc(C(N)=O)c(Nc2ccc(N3CCN(C4CCCC4)CC3)cc2)n1    10 to 100 nM
C[C@@H]1[C@H](NC(=O)c2ccc(C3CC3)cc2F)CCCN1c1cnc(C(N)=O)c(Nc2ccc(C3(C)CCN(C4CC4)CC3)cc2)n1    100 to 1000 nM
CN1CCN(Cc2ccc(Nc3nc(N4CCC[C@@H](n5ccc6cc(C7CC7)ccc6c5=O)C4)cnc3C(N)=O)cc2)CC1    100 to 1000 nM
C[C@@H]1[C@H](NC(=O)c2ccc(C3CC3)cc2F)CCCN1c1cnc(C(N)=O)c(Nc2ccc(S(=O)(=O)N3CCCC3)cc2)n1    > 10000 nM

###

In this section we review reported IC50 values for a set of compounds.
Target: TEC (Homo sapiens)
Sequence (P42680 1-631): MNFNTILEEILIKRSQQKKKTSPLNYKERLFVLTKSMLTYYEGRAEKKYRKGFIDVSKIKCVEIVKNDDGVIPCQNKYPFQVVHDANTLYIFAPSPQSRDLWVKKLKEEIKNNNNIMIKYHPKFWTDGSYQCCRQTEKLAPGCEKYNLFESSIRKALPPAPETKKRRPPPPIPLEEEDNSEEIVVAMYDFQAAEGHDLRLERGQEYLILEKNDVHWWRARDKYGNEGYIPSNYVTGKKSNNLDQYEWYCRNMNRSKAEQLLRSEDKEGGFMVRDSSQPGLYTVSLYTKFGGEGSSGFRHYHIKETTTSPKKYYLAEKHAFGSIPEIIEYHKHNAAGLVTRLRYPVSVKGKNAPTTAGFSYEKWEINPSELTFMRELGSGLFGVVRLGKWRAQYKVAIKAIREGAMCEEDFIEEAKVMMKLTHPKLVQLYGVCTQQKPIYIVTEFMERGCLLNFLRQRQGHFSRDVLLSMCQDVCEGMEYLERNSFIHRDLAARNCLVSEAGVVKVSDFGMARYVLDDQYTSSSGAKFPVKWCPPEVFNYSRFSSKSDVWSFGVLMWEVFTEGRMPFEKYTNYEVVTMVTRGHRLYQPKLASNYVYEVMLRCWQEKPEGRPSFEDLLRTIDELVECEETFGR
Experiment: Inhibition of a panel of kinases, in vitro HotSpot kinase assay: TEC
Assay type: biochemical
Settings: E compounds, Table 17
property.name: IC50

C=CC(=O)N1CCC[C@@H](Nc2nnc(C(N)=O)c(Nc3ccc4ncsc4c3)n2)C1 [Example E-51]    ≤ 0.01 µM
C[C@@H]1[C@H](NC(=O)c2ccc(C(=O)N(C)C)cc2)CCCN1c1cnc(C(N)=O)c(Nc2cnn(C)c2)n1 [Example E-138]    ≤ 0.01 µM
C=CC(=O)N1CCC[C@@H](Nc2nnc(C(N)=O)c(Nc3cccc(C(=O)NC)c3)n2)C1 [Example E-82]    ≤ 0.01 µM
C[C@@H]1[C@H](NC(=O)c2noc(C(C)(C)C)n2)CCCN1c1cnc(C(N)=O)c(Nc2cnn(C)c2)n1 [Example E-149]    0.1 to 1 µM

###

In this section we review reported pIC50 values for a set of compounds.
molecular target: JAK3 (Homo sapiens); experiment: Inhibition of a panel of kinases, in vitro HotSpot kinase assay: JAK3; format: biochemical; settings: D-compounds panel data; 1 μM ATP; read-out: IC50 JAK3
pIC50: −log10 of the molar value.
property.name: pIC50

C[C@@H]1[C@H](NC(=O)c2ccc(C3CC3)cc2)CCCN1c1cnc(C(N)=O)c(Nc2ccc(C3CCN(C)CC3)cc2)n1    5.00 to 6.00
C[C@@H]1[C@H](NC(=O)c2ccc(C3CC3)cc2)CCCN1c1cnc(C(N)=O)c(Nc2ccc(N3CCC(F)(F)CC3)cc2)n1    5.00 to 6.00
CN1CCC(n2cc(Nc3nc(N4CCC[C@@H](n5ccc6cc(C7CC7)ccc6c5=O)C4)cnc3C(N)=O)cn2)CC1    5.00 to 6.00
Cn1cc(Nc2nc(N3CC(NC(=O)c4ccc(C5CC5)cc4)CC(F)(F)C3)cnc2C(N)=O)cn1 (stereo in doubt)    5.00 to 6.00
Cc1c(Nc2nc(N3CCC[C@@H](NC(=O)c4ccc(C5CC5)cc4)[C@H]3C)cnc2C(N)=O)cnn1C    < 5.00
Cc1cc2cc(C(=O)N[C@@H]3CCCN(c4cnc(C(N)=O)c(Nc5cnn(C)c5)n4)[C@@H]3C)ccc2o1    5.00 to 6.00

###

biological target: JAK3 (Homo sapiens, UniProt P52333); test: Inhibition of a panel of kinases, in vitro HotSpot kinase assay: JAK3; type: biochemical; details: D-compounds panel data; 1 μM ATP; read-out: IC50 JAK3
Sequence (P52333 whole entry): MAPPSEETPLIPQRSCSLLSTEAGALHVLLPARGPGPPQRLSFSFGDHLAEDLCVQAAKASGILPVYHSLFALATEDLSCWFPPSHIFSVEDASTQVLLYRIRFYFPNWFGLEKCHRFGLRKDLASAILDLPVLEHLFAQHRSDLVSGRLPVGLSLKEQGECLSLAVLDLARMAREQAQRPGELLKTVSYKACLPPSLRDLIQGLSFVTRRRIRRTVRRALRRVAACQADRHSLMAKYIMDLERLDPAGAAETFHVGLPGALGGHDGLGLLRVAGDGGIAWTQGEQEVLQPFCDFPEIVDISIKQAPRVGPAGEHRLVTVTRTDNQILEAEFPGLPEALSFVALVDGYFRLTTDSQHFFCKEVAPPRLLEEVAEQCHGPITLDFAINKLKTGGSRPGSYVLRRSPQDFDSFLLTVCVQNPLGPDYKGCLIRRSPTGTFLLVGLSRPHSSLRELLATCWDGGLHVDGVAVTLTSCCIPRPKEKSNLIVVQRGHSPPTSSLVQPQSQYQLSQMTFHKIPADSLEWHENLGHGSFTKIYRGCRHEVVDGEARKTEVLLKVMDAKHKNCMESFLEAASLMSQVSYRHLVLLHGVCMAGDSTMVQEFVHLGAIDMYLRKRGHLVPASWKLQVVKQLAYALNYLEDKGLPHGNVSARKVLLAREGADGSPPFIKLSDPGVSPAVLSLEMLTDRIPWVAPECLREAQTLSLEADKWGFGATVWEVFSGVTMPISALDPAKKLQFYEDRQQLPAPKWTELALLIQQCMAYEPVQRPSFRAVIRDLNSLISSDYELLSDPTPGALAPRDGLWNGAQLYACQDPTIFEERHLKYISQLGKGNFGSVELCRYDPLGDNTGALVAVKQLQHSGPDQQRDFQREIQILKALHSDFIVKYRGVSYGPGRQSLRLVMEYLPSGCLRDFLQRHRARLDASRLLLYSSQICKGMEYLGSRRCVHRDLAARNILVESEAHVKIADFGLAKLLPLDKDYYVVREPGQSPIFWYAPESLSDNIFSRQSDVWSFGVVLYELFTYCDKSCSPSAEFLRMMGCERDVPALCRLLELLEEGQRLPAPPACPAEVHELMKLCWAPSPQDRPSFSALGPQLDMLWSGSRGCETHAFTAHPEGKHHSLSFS
property.name: IC50

Cc1nc2cc(C(=O)N[C@@H]3CCCN(c4cnc(C(N)=O)c(Nc5cnn(C)c5)n4)[C@@H]3C)ccc2s1    100 to 1000 nM
C[C@@H]1[C@H](NC(=O)c2ccc3c(c2)OC(F)(F)O3)CCCN1c1cnc(C(N)=O)c(Nc2cnn(C)c2)n1    100 to 1000 nM
C[C@@H]1[C@H](NC(=O)c2ccc(C3CC3)cc2)CCCN1c1cnc(C(N)=O)c(Nc2cnn(C3CCOCC3)c2)n1    1000 to 10000 nM
C[C@@H]1[C@H](NC(=O)c2ccc(C3CC3)cc2F)CCCN1c1cnc(C(N)=O)c(Nc2ccc(S(C)(=O)=O)cc2)n1    1000 to 10000 nM
C[C@@H]1[C@H](NC(=O)c2ccc(C3CC3)cc2F)CCCN1c1cnc(C(N)=O)c(Nc2ccc3cccnc3c2)n1    > 10000 nM
CC(C)c1ccc(C(=O)N[C@@H]2CCCN(c3cnc(C(N)=O)c(Nc4cnn(C)c4)n3)C2)cc1    > 10000 nM
C[C@@H]1[C@H](NC(=O)c2ccc(C3CC3)cc2)CCCN1c1cnc(C(N)=O)c(Nc2cnn(CC3CCOCC3)c2)n1    > 10000 nM
CC1(c2ccc(Nc3nc(N4CCC[C@@H](n5ccc6cc(C7CC7)ccc6c5=O)C4)cnc3C(N)=O)cc2)CCN(C2CCCC2)CC1    100 to 1000 nM
C[C@@H]1[C@H](NC(=O)c2ccc(C3CC3)cc2)CCCN1c1cnc(C(N)=O)c(Nc2ccc(OC3CCN4CCCC4C3)cc2)n1 (some centres unmarked)    100 to 1000 nM
C[C@@H]1[C@H](NC(=O)c2ccc(C3CC3)cc2F)CCCN1c1cnc(C(N)=O)c(Nc2ccc3ncccc3c2)n1    > 10000 nM
C[C@@H]1[C@H](N2Cc3cc(Br)ccc3C2=O)CCCN1c1cnc(C(N)=O)c(Nc2cnn(C)c2)n1    100 to 1000 nM
C[C@@H]1[C@H](NC(=O)c2cnc(C(C)(C)C)s2)CCCN1c1cnc(C(N)=O)c(Nc2cnn(C)c2)n1    100 to 1000 nM
C[C@@H]1C[C@H](NC(=O)c2ccc(C3CC3)cc2)CN(c2cnc(C(N)=O)c(Nc3cnn(C)c3)n2)C1    > 10000 nM
C[C@@H]1[C@H](NC(=O)c2ccc(C(C)(C)C)cc2)CCCN1c1cnc(C(N)=O)c(Nc2cnn(C)c2)n1    > 10000 nM

###

target: JAK3 (Homo sapiens, UniProt P52333); experiment: Inhibition of a panel of kinases, in vitro HotSpot kinase assay: JAK3; assay type: biochemical; details: Table 12, Formula C-I; 1 μM ATP; read-out: JAK3 (IC50)
Where a name gives a salt, the structure may show the parent alone.
In this section we review reported IC50 values for a set of molecules.
property.name: IC50

Cc1cc(Nc2nc(N[C@@H]3CCCNC3)cnc2C(N)=O)sn1 [Example C-1]    < 100 nM
Cc1cc(Nc2nc(N[C@H]3CCN(C(=O)N(C)C)C3)cnc2C(N)=O)sn1 [Example C-10]    100 to 1000 nM
Cc1cc(Nc2nc(N[C@@H]3CCCN(C(=O)N(C)C)C3)cnc2C(N)=O)sn1 [Example C-5, hydrochloride]    100 to 1000 nM
Cc1cc(Nc2nc(N(C)CC3CCN(C(=O)c4ccccc4)CC3)cnc2C(N)=O)sn1 [Example C-15]    1000 to 10000 nM
C=CC(=O)N1CC[C@H](Nc2nnc(C(N)=O)c(Nc3cccc(C(=O)Nc4ccc(C(C)C)c(C)c4)c3)n2)C1 [Example C-29]    < 100 nM
Cc1cc(Nc2nc(N(C)CC3CCN(C(=O)c4ccc(N(C)C)cc4)CC3)cnc2C(N)=O)sn1 [Example C-16]    1000 to 10000 nM
Cc1cc(Nc2nc(N[C@@H]3CCCN(C(=O)c4ccc(N(C)C)cc4)C3)cnc2C(N)=O)sn1 [Example C-7, hydrochloride]    > 10000 nM
Cc1cc(Nc2nc(N[C@@H]3CCCN(C(=O)c4ccccc4)C3)cnc2C(N)=O)sn1 [Example C-3]    > 10000 nM
Cc1cc(Nc2nc(N[C@H]3CCCN(C(=O)c4ccc(N(C)C)cc4)C3)cnc2C(N)=O)sn1 [Example C-4]    > 10000 nM
Cc1cc(Nc2nc(N[C@@H]3CCN(C(=O)c4ccccc4)C3)cnc2C(N)=O)sn1 [Example C-11, hydrochloride]    1000 to 10000 nM
Cc1cc(Nc2nc(N[C@@H]3CCN(C(=O)c4ccc(N(C)C)cc4)C3)cnc2C(N)=O)sn1 [Example C-13]    1000 to 10000 nM
C=CC(=O)N1CC[C@H](Nc2nnc(C(N)=O)c(Nc3ccc(C(C)C)cc3)n2)C1 [Example C-31]    < 100 nM
Cc1cc(Nc2nc(N[C@H]3CCCN(C(=O)c4ccccc4)C3)cnc2C(N)=O)sn1 [Example C-6]    > 10000 nM
Cc1cc(Nc2nc(N[C@H]3CCCN(C(=O)N(C)C)C3)cnc2C(N)=O)sn1 [Example C-2]    100 to 1000 nM
Cc1cc(Nc2nc(N(C)[C@H]3CCCN(C(=O)N(C)C)C3)cnc2C(N)=O)sn1 [Example C-8]    1000 to 10000 nM
C=CC(=O)N1CC[C@@H](Nc2nnc(C(N)=O)c(Nc3ccc(C(C)C)cc3)n2)C1 [Example C-32]    < 100 nM
C=CC(=O)N1CC[C@@H](Nc2nnc(C(N)=O)c(Nc3cccc(C(=O)Nc4ccc(C(C)C)c(C)c4)c3)n2)C1 [Example C-30]    100 to 1000 nM
Cc1cc(Nc2nc(N(C)[C@H]3CCCN(C(=O)c4ccc(N(C)C)cc4)C3)cnc2C(N)=O)sn1 [Example C-9]    > 10000 nM
Cc1cc(Nc2nc(N(C)CC3CCN(C(=O)N(C)C)CC3)cnc2C(N)=O)sn1 [Example C-14]    1000 to 10000 nM
Cc1cc(Nc2nc(N[C@@H]3CCN(C(=O)N(C)C)C3)cnc2C(N)=O)sn1 [Example C-12]    100 to 1000 nM
